molecular target: PRKCE (human) (UniProt Q02156); experiment: KINOMEscan competition binding; conditions: compound 10.0 µM
Sequence (Q02156 whole entry, looked up): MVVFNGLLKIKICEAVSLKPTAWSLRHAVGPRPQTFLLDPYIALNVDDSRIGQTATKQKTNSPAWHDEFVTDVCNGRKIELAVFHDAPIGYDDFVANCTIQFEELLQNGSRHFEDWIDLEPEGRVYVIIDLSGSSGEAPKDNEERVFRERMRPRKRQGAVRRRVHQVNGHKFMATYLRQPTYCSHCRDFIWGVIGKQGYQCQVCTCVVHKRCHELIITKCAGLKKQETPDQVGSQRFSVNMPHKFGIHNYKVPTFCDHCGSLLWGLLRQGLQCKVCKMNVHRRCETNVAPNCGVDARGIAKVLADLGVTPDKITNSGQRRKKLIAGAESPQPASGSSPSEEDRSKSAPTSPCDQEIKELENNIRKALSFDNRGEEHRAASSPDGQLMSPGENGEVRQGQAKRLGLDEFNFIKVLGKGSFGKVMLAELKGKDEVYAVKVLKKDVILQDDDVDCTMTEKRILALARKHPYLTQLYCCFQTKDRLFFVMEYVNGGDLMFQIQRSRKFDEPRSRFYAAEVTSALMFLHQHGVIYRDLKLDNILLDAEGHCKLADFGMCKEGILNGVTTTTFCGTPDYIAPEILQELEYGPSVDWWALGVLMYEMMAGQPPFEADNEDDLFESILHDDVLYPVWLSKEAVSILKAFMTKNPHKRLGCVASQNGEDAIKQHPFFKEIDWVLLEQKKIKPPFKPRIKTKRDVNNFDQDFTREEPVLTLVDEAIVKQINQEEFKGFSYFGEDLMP
With a cut-off of 80%, any kinase still bound, per cent of control strictly below it is called fulfilled; any kinase still bound, per cent of control meeting it or above is called not fulfilled.

Is kinase still bound, per cent of control of CN(C)C/C=C/C(=O)Nc1ccc(C(=O)Nc2cccc(Nc3nccc(-c4cccnc4)n3)c2)cc1 strictly below 80%?
fulfilled

Is kinase still bound, per cent of control of CS(=O)(=O)N1CCN(Cc2cc3nc(-c4cccc5[nH]ncc45)nc(N4CCOCC4)c3s2)CC1 strictly below 80%?
not fulfilled

Is kinase still bound, per cent of control of O=C(Nc1cccc(Nc2ncc(Br)c(NCCc3cnc[nH]3)n2)c1)N1CCCC1 strictly below 80%?
fulfilled

Is kinase still bound, per cent of control of O=c1cc(N2CCOCC2)oc2c(-c3cccc4c3sc3ccccc34)cccc12 strictly below 80%?
not fulfilled

Is kinase still bound, per cent of control of Cc1n[nH]c2ccc(-c3cncc(OC[C@@H](N)Cc4c[nH]c5ccccc45)c3)cc12 strictly below 80%?
fulfilled

Is kinase still bound, per cent of control of N#CCNC(=O)c1ccc(-c2ccnc(Nc3ccc(N4CCOCC4)cc3)n2)cc1 strictly below 80%?
fulfilled

Is kinase still bound, per cent of control of CNC(=O)c1cc(Oc2ccc(NC(=O)Nc3ccc(Cl)c(C(F)(F)F)c3)cc2)ccn1 strictly below 80%?
not fulfilled

Is kinase still bound, per cent of control of CCN(CC)CCCCNc1ncc2cc(-c3cc(OC)cc(OC)c3)c(NC(=O)NC(C)(C)C)nc2n1 strictly below 80%?
not fulfilled

Is kinase still bound, per cent of control of CNC(=O)c1ccc(Nc2cc(Nc3ccccc3S(=O)(=O)C(C)C)c3cc[nH]c3n2)nc1 strictly below 80%?
fulfilled

Is kinase still bound, per cent of control of COc1cc2ncnc(-n3nc(-c4ccccn4)nc3N)c2cc1OC strictly below 80%?
fulfilled

Is kinase still bound, per cent of control of COCC(=O)NC/C=C/c1ccc2ncnc(Nc3ccc(Oc4ccc(C)nc4)c(C)c3)c2c1 strictly below 80%?
not fulfilled

Is kinase still bound, per cent of control of COc1cc(N2CCN(C)CC2)ccc1Nc1ncc2c(n1)N(C)c1ccccc1C(=O)N2C strictly below 80%?
not fulfilled

Is kinase still bound, per cent of control of CCN1CCN(C(=O)Cc2ccc(Nc3ncc(F)c(Nc4ccc(C(=O)Nc5ccccc5Cl)cc4)n3)cc2)CC1 strictly below 80%?
not fulfilled

Is kinase still bound, per cent of control of NC(=O)Nc1cc(-c2cccc(F)c2)sc1C(=O)N[C@@H]1CCCNC1 strictly below 80%?
fulfilled

These entries and their values trace back to the kinase profiling compilation of Christmann-Franck et al. (2016).
